Target: Bovine Carbonic Anhydrase-II (Bos taurus)
Construct: pure bovine erythrocyte CA-II; from tissue; host or cells: bovine erythrocytes
Sequence (P00921 whole entry): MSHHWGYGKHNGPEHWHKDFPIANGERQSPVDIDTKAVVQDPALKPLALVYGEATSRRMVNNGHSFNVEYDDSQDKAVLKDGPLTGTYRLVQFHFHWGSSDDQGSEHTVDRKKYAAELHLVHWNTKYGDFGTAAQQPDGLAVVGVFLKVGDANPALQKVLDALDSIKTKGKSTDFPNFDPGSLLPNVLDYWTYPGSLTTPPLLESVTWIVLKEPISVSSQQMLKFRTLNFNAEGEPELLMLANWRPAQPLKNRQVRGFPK
Test: Kinetics studies (Lineweaver-Burk, Dixon plots) against Bovine Carbonic Anhydrase-II
Format: biochemical
Conditions: Lineweaver-Burk / Dixon plots
assay_metric: Type of Inhibition

Answered examples (4):
                                   compound        assay_metric  recorded_value
0  NS(=O)(=O)c1ccc(NC(=S)NC(=O)c2ccc([N+](=O)[O-])cc2)cc1  Type of Inhibition  Noncompetitive
1  NS(=O)(=O)c1ccc(NC(=S)NC(=O)c2ccc(Cl)cc2)cc1  Type of Inhibition  Noncompetitive
2  NS(=O)(=O)c1ccc(NC(=S)NC(=O)C2CCCO2)cc1 (stereo not drawn)  Type of Inhibition      Mixed type
3  Cc1cccc(C(=O)NC(=S)Nc2ccc(S(N)(=O)=O)cc2)c1  Type of Inhibition  Noncompetitive

What Type of Inhibition appears in the records for this compound with Bovine Carbonic Anhydrase-II (Bos taurus)? NS(=O)(=O)c1ccc(NC(=S)NC(=O)c2ccc(Cl)cc2[N+](=O)[O-])cc1
Mixed type

Value wanted: Type of Inhibition (Bovine Carbonic Anhydrase-II (Bos taurus)) of entry CCC(C(=O)NC(=S)Nc1ccc(S(N)(=O)=O)cc1)c1ccccc1 (stereo not drawn)
Mixed type
